# System: SN12C
# Assay Protocol: NCI tumour cell line growth inhibition, 48 h
Activity calls are given as the source filed them. No stated cut-off is given here; in the data, active = GI50 up to about 1.1 µM and inactive = higher.
Hi there, use one of these labels in your reply, thanks! active, inactive

Cc1cc2cc3c(C)cc(=O)oc3c(C)c2o1 [TRIOXSALEN]
inactive

Record request — test call for Cc1ccc(/C=C2\CCCC(C(NO)c3ccc(C)cc3)C2=NO)cc1 (stereo not drawn) inactive

Record request — test call for O=C(CCN1CCN(c2ccccc2)CC1)N1CCc2c([nH]c3ccccc23)C1c1cccnc1 (stereo not drawn) inactive

Record request — test call for C=CC/N=C1\NC(=O)C(CC(=O)Nc2ccc(C)cc2)S1 (stereo not drawn) inactive

Record request — test call for C[C@]12CC(C#N)C(=O)C(O)=C1CC[C@@H]1C2CC[C@@]2(C)C1CC[C@@H]2O (stereo partly drawn) inactive

Record request — test call for `COc1ccc(Cl)cc1NC(=O)O/N=C(\Cl)C(C)C` inactive

Record request — test call for `COc1cc2c(cc1OCCCCCN1C(=O)c3cccc4cccc(c34)C1=O)N=C[C@@H]1CCCN1C2=O` active

Record request — test call for N#CC1CCCCCCCCCCC(=O)N(CCCl)C1=O (stereo not drawn) inactive

Record request — test call for c1ccc2cc(C3NCCc4nc[nH]c43)ccc2c1 (stereo not drawn) inactive

Record request — test call for `Cc1cc(S(=O)(=O)Nc2n[nH]c(Nc3ccccc3)n2)c(S)cc1Cl` inactive

Record request — test call for O=C1c2ccccc2C(=O)C2C3c4ccccc4C(c4ccccc43)C12 (stereo not drawn) inactive

Record request — test call for CCCCCCCCCCCCCCCC(=O)Nc1ccn(C2OC(CO)C(O)C2O)c(=O)n1 (stereo not drawn) inactive

Record request — test call for `Nc1cc(CO)cc(Nc2c3ccccc3nc3occc23)c1` inactive

Record request — test call for COC(=O)c1ccc(CN2CCc3c([nH]c4ccccc34)C2CO)o1 (stereo not drawn) inactive

Record request — test call for `O=C(c1cccs1)N(C(=O)N1CCN(c2ccccc2)CC1)S(=O)(=O)c1ccccc1` inactive

Record request — test call for `CCCC#CCOC(=O)c1cc([N+](=O)[O-])cc([N+](=O)[O-])c1` inactive

Record request — test call for `Cc1cc2c3c(nc4ccccc42)C(=O)c2ccccc2-c3n1` inactive

Record request — test call for CCCCCOP(=O)(OCCCCC)C(NC(C)=O)(C(=O)OCC)C(F)(F)F (stereo not drawn) inactive

* * *

# Test system: A498
# Assay Protocol: NCI tumour cell line growth inhibition, 48 h
Calls of active or inactive are those of the source. No stated cut-off is given here; in the data, active = GI50 up to about 1.1 µM and inactive = higher. *1 amine or outer side, *2 acyl side, *3 side chain or, on linkers, in order; H or OH if unused. Where a SMILES comes first, the peptide text is derived from it. Bridges are numbered along the chain shown (N, C = ends). Roman numbers before positions name the chains, in order. [ ]: non-standard residue; d: D form. Actinocin(9to1) = Cc1c2oc3c(C)ccc(C(=O)[*:1])c3nc-2c(C(=O)[*:2])c(N)c1=O; NMeV = CN[CH](C(=O)O)C(C)C; Sar = CNCC(=O)O
Hi there, use one of these labels in your reply, thanks! 1 = active, -1 = inactive

Take a look at these entries with their results.
CON(C)C(=O)C1CCCO1 (configuration not stated)
-1
Cc1c2oc3c(C)ccc(C(=O)NC4C(=O)NC(C(C)C)C(=O)N5CCCC5C(=O)N(C)CC(=O)N(C)C(C(C)C)C(=O)OC4C)c3nc-2c(C(=O)NC2C(=O)NC(C(C)C)C(=O)N3CCCC3C(=O)N(C)CC(=O)N(C)C(C(C)C)C(=O)OC2C)c(N)c1=O (configuration not stated) (I: TVP[Sar][NMeV] / II: TVP[Sar][NMeV]; ester I:1-I:C, II:1-II:C; linker I:N-II:N via Actinocin(9to1); configuration not given here)
1
Cc1nc2c(sc3nc4ccccc4n32)c(=O)[nH]1
-1

Record request — test call for CC(Cc1ccc(O)cc1)NCC(O)c1ccc(O)c(O)c1 (configuration not stated) -1

Record request — test call for CC(=O)n1cc(C2CC23N=C(c2ccccc2)OC3=O)c2ccccc21 (configuration not stated) -1

* * *

# Tested on: HOP-62
# Assay Protocol: NCI tumour cell line growth inhibition, 48 h
Activity calls are given as the source filed them. Cut-off read from the data, not from the text of the source: active = GI50 up to about 1.1 µM and inactive = higher.
Hi there, use one of these labels in your reply, thanks! class 1 for active, class 0 for inactive

Take a look at these entries with their results.
N#Cc1c(C#N)c(-c2ccccc2)n(-c2ccccc2)c1N
class 0
CCN1CCC(O)(c2ccc(Cl)c(Cl)c2)C(C(=O)c2ccc(Cl)c(Cl)c2)C1 (centres undefined)
class 0
CC[C@]12C=CCN3CC[C@@]4(c5cc(Br)c(OC)c([N+](=O)[O-])c5N(C)[C@H]4[C@@](O)(C(=O)OC)[C@@H]1OC(C)=O)[C@@H]32
class 0

Record request — test call for CC1C(c2ccccc2)N(C)C(c2ccccc2)C(C)C1(O)c1ccccc1 (centres undefined) class 0

Record request — test call for `CNC(=O)Oc1ccc(C(=S)Nc2ccc(Br)cc2)cc1` class 0

Record request — test call for CC(C)=CC1(C)/C(=N\O)C(C)(CC(C)C)C(=O)N1O (centres undefined) class 0

Record request — test call for `C[C@@]12[C@H]3CC[C@@H]1[C@H](O)C(=O)N2CC3` class 0

Record request — test call for `N#CCOc1ccc(/C=C/C(=O)c2ccc(Cl)cc2)cc1` class 0

Record request — test call for COC(=O)C(C/C=C(\C)c1ccc(Cl)cc1)C(C)=O (centres undefined) class 0

Record request — test call for C[C@H](CC[C@@H](O)C(C)(C)O)[C@H]1CC[C@@]2(C)[C@@H]3CC=C4[C@@H](CC[C@H](OC5OC(CO)C(O)C(O)C5O)C4(C)C)[C@]3(C)C(=O)C[C@]12C (some centres undefined) class 0

Record request — test call for CCOC(=O)c1c(N)sc2c1C(C(=O)OCC)CCC2 (centres undefined) class 0

* * *

# System: NCI-H522
# Assay Protocol: NCI tumour cell line growth inhibition, 48 h
Calls of active or inactive are those of the source. Rule as the data show it: active = GI50 up to about 1.1 µM and inactive = higher.
Readings of GI50 for the listed compounds

Please review the following examples before continuing.
O=C1Nc2c(ccc(Cl)c2I)C1=O
15.6 µM (inactive)
Cc1ccc(/C=C2\CCCC(C(NO)c3ccc(C)cc3)C2=NO)cc1 (configuration not stated)
28.5 µM (inactive)
OCC(O)COCn1cc(Cn2ncc3c(NCc4ccccc4)ncnc32)nn1 (configuration not stated)
18.7 µM (inactive)
OCCC/N=C1N=C(Cl)/C(=C\c2ccccc2)N\1
> 100 µM (inactive)

Next up:
Which GI50 value is on record for `Cc1cc(S(=O)(=O)Nc2n[nH]c(Nc3ccccc3)n2)c(S)cc1Cl` ? > 10 µM (inactive)

* * *

# System: SNB-78
# Assay Protocol: NCI tumour cell line growth inhibition, 48 h
The source made the active and inactive calls. No stated cut-off is given here; in the data, active = GI50 up to about 1.1 µM and inactive = higher.
Readings of GI50 for the listed compounds

Please review the following examples before continuing.
CCOC(C)C(/C=N/NC(N)=S)=NNC(N)=S (stereo not given) [GLOXAZONE]
53.7 µM (inactive)
ClC(Cl)=C(Cl)C1(Cl)CC1COCc1ccccc1 (stereo not given)
4.83 µM (inactive)
CCCCCCCCCCCCCCCC(=O)Nc1ccn(C2OC(CO)C(O)C2O)c(=O)n1 (stereo not given)
> 100 µM (inactive)
CCOC(C/N=c1/nc(N(C)C)ss1)OCC
24.6 µM (inactive)

Which GI50 value is on record for C[C@]12CC(C#N)C(=O)C(O)=C1CC[C@@H]1C2CC[C@@]2(C)C1CC[C@@H]2O (stereo not given in full) ? 65.3 µM (inactive)

Which GI50 value is on record for `CC1=Nc2ccccc2S(=O)(=O)N1` ? > 100 µM (inactive)

Which GI50 value is on record for `Cn1cnc([N+](=O)[O-])c1Sc1nc2cc(Cl)c(F)cc2[nH]1` ? 2.43 µM (inactive)

Which GI50 value is on record for `CCc1cccc(C)c1NC(C)=O` ? > 100 µM (inactive)

Which GI50 value is on record for COc1ccc(/C=C2\CCC(C)(CN(C)C)C2=O)cc1 (stereo not given) ? > 100 µM (inactive)

* * *

# System: K562
# Assay Protocol: NCI tumour cell line growth inhibition, 48 h
Active and inactive are the calls of the source. No stated cut-off is given here; in the data, active = GI50 up to about 1.1 µM and inactive = higher. *1 amine or outer side, *2 acyl side, *3 side chain or, on linkers, in order; H or OH if unused. Where a SMILES comes first, the peptide text is derived from it. Bridges are numbered along the chain shown (N, C = ends). Roman numbers before positions name the chains, in order. [ ]: non-standard residue; d: D form. Actinocin(9to1) = Cc1c2oc3c(C)ccc(C(=O)[*:1])c3nc-2c(C(=O)[*:2])c(N)c1=O; NMeV = CN[CH](C(=O)O)C(C)C; Sar = CNCC(=O)O
Hi there, use one of these labels in your reply, thanks! active, inactive

COc1ccc(/C(C)=N/NC(=O)c2ccncc2)c(OC)c1
inactive
COc1cc2c(cc1OCCCCCN1C(=O)c3cccc4cccc(c34)C1=O)N=C[C@@H]1CCCN1C2=O
active
Cc1c2oc3c(C)ccc(C(=O)NC4C(=O)NC(C(C)C)C(=O)N5CCCC5C(=O)N(C)CC(=O)N(C)C(C(C)C)C(=O)OC4C)c3nc-2c(C(=O)NC2C(=O)NC(C(C)C)C(=O)N3CCCC3C(=O)N(C)CC(=O)N(C)C(C(C)C)C(=O)OC2C)c(N)c1=O (stereo not given) (I: TVP[Sar][NMeV] / II: TVP[Sar][NMeV]; ester I:1-I:C, II:1-II:C; linker I:N-II:N via Actinocin(9to1); configuration not given here)
active

Record request — test call for `CN(C)c1ccc(-c2ccc(N(C)C)c3n[se]nc23)c2n[se]nc12` inactive

Record request — test call for CCOC(C)C(/C=N/NC(N)=S)=NNC(N)=S (stereo not given) [GLOXAZONE] active

Record request — test call for `Cc1c(C(=N)N)oc2ccccc12` inactive

Record request — test call for O=C(O)C(CO)NC(=O)n1c2ccccc2c2ccccc21 (stereo not given) inactive

Record request — test call for C=CC/N=C1\NC(=O)C(CC(=O)Nc2ccc(C)cc2)S1 (stereo not given) inactive

Record request — test call for `O=C(O)C1=Cc2cccc3cccc(c23)C1=O` inactive

Record request — test call for CC12CCC(=O)N1c1cccnc1N2 (stereo not given) inactive
